B1: SEC22B (parent)
chain: AKQLFRKLNEQSPTRCTLEAGAMT

- Variants of: B1
- ASSAY NOTES: protein stability index of a GFP-peptide fusion (GPS, HEK-293T) (PSI 1-6); higher = more stable;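 further: lentivirally expressed fusions sorted by FACS into six bins by GFP to DsRed ratio, PSI derived from sequencing read proportions per bin multiplied by bin number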
- CONDITION SET: c terminus: a fixed tail appended
READOUT: protein stability index

INSERT INTO assay_data (mutation_notation, readout, meas_value) VALUES
  ('S12R', 'protein stability index', 1.4),
  ('S12K', 'protein stability index', 1.84),
  ('T17L', 'protein stability index', 2.13),
  ('S12M', 'protein stability index', 2.37),
  ('L18Q', 'protein stability index', 2.71),
  ('K2G', 'protein stability index', 2.77),
  ('G21P', 'protein stability index', 2.38),
  ('T24R', 'protein stability index', 2.14),
  ('F5G', 'protein stability index', 3.62),
  ('C16P', 'protein stability index', 3.96),
  ('P13Q', 'protein stability index', 1.98),
  ('G21F', 'protein stability index', 2.42),
  ('T17Q', 'protein stability index', 2.4),
  ('M23I', 'protein stability index', 2.04),
  ('S12D', 'protein stability index', 3.51),
  ('E10D', 'protein stability index', 2.18),
  ('T17N', 'protein stability index', 2.22),
  ('Q11Y', 'protein stability index', 1.35),
  ('G21S', 'protein stability index', 2.51),
  ('M23D', 'protein stability index', 2.77),
  ('L8E', 'protein stability index', 3.13),
  ('L4V', 'protein stability index', 2.07),
  ('M23P', 'protein stability index', 2.7),
  ('T24P', 'protein stability index', 1.72),
  ('N9V', 'protein stability index', 1.39),
  ('P13A', 'protein stability index', 2.48),
  ('N9R', 'protein stability index', 2.88),
  ('K2P', 'protein stability index', 2.57),
  ('A22K', 'protein stability index', 1.79),
  ('L8S', 'protein stability index', 2.35);
